assay: yeast display, Sf9 membrane polyspecificity reagent, FACS + sequencing; frameworks hold sequencing errors

[
  {
    "querySequence": "QVQLVESGGGLVQAGGSLRLSCAASGSTFQYYAMGGYIQAPGKQRQLVAAISSGGSTYYADSVKGRFTISRDNAMNTVYLQMNSLKPEDTAVYYCAADGYYSVSRYTSYKYYYWGQGTQVTVSS",
    "polyreactivity (PSR sort gate)": "high polyreactivity"
  },
  {
    "querySequence": "QVQLVESGGGLVQAGGSLRLSCAASGNTFYGYAMGWYRQAPGKERELVASITLSGDSTYYSDSVKGRFTISRDNAKNTVYLQMNSLKPEDTAGYYCAFDGYWYGGIFYYGGQGTQVTVSS",
    "polyreactivity (PSR sort gate)": "low polyreactivity"
  },
  {
    "querySequence": "QVQLQESGGGLVQAGGSLRLSCAASGTITVLYKMVWFRQAPGKEREFVASINYGTSTYYADSVKGRFTVSRDSAKNTVYLQMNSLKPEDTAVYYCAAAYRWQDVYRYWGQGTQVTVSS",
    "polyreactivity (PSR sort gate)": "low polyreactivity"
  },
  {
    "querySequence": "QVQLVESGGGLVQAGGSLRLSCAASGSIFRWYAMGWSRQAPGKEREFVAAITSSGGSTYYADSVKGRFTISRDNAKNTVYLQMNSLKPEDTAVYYCNRRYQPYSYDYWGQGTQVTVSS",
    "polyreactivity (PSR sort gate)": "high polyreactivity"
  },
  {
    "querySequence": "QVQLVESGGGLVQAGGSLRLSCAASGYTFRTNVMGWYRPAPGKVWELVATINWRGGSTYYADSVKGRFTISRDNAKNTVYLQMNSLKPEDTAVYYCAKSYRYYRTMDYWGQGTQVTVSS",
    "polyreactivity (PSR sort gate)": "low polyreactivity"
  },
  {
    "querySequence": "QVQLQESGGGLVQAGGSRRLSCAASGTIFTARFMGWYRQATGKERELVSTITDGGNTNHAESVKCRFTISRDNAKNTGSLQMNSLKPEYAAVYYCAAGEVDNDTLLYWGQGSQVTVSS",
    "polyreactivity (PSR sort gate)": "low polyreactivity"
  },
  {
    "querySequence": "QVQLVESGGGLVQAGGSLRLSCAASGSTLSQNAMGWSRQAPGKEREFVADISGSGDSTYYADSVKGRITISRDNAKNTVYLQMNSLKPEDTAVYYCAAEELSHYEYWGKGTQVTVSS",
    "polyreactivity (PSR sort gate)": "low polyreactivity"
  },
  {
    "querySequence": "QVQLVESGGGLVQAGGSLRLSCAASGSIFVYYAMGWYRQAPGKERELVAAISSRGGSTYYADSVKGRFTISRDNAKNTVYLQMNSLKPEDTAVYYCAAYTLDGVNGRVLDDYWGQGTQVTVSS",
    "polyreactivity (PSR sort gate)": "low polyreactivity"
  },
  {
    "querySequence": "QVQLVESGGGLVQAGGSLRLSCAASGSIFGRYVMGWYRQAPGKERELVAAINWSGSRTYYADSVKGRFTISRDNAKNTVYLQMNSLKPEDTAVYYCAADWWSRYYYWGQGTQVTVSS",
    "polyreactivity (PSR sort gate)": "high polyreactivity"
  },
  {
    "querySequence": "QVQLVESGGGLVQAGGSLRLSCAASGSIFPYNAMGCYRQAPGKEMELVAVITSSGASTYYADSVKGRFTISLDNSKNTVYLQMNSLKPEDTAVYYCAARGYNYYFGGYDYWGQGTQVTVSS",
    "polyreactivity (PSR sort gate)": "low polyreactivity"
  },
  {
    "querySequence": "QVQLVESGGGLVQAGGSLRLSCAASGGTFSPYDMGWYRQAPGKERELFASITGSGGSTYYADSVKGRFTISRDNAKNTVYLQMNSLKPVDTAVYDCATQPLTWSSYRWDWRAQFDHWGQGTQVTVSS",
    "polyreactivity (PSR sort gate)": "low polyreactivity"
  }
]

###

assay: yeast display, Sf9 membrane polyspecificity reagent, FACS + sequencing; frameworks hold sequencing errors

[
  {
    "querySequence": "QDQLVESGGGLVQAGGSLRLSCAASGSSFLVYAMGWYRQATGKEREFVAAIRGGGSTNYADSVKGRFTISRDNAMNTVYLQMNSLKPEDTAVYYCAAYLLYTPSMDYWGQGTQVTVSS",
    "polyreactivity (PSR sort gate)": "low polyreactivity"
  },
  {
    "querySequence": "QVQLVESGGGLVQAGGSLRLSCAASGRTFHYYTMGWYRQAPGKERELVAAISQSGGRTYYADSVKGRFTISRDNAKNTVYLQMNSLKPEDTAVYYCAAVSWRVISDYRIVGYDYWGQGTQVTVSS",
    "polyreactivity (PSR sort gate)": "low polyreactivity"
  }
]

###

experiment: yeast display, Sf9 membrane polyspecificity reagent, FACS + sequencing; frameworks hold sequencing errors

[
  {
    "querySequence": "QVQLVESGGGLVQAGGSLRLSCAASGFTFPYYAMGWYRQAPGKERELVATISNGGNTYYADSVKGRFTISRDNAKNTVYLQMNSLKPEDTAVYYCNAVVWAWMGYWGQGTQVTVSS",
    "polyreactivity (PSR sort gate)": "high polyreactivity"
  },
  {
    "querySequence": "QVQLVESGGGLVQAGGSLRLSCAASGLTFVDYAMGWYRQAPGKERELVAAISWSGGSTYYADSVKGRFTISRDIAKNTVYLQMNSLKPEDTAVYYCAAETQGWYPWGFYWGQCTQVTVSS",
    "polyreactivity (PSR sort gate)": "low polyreactivity"
  },
  {
    "querySequence": "QVQLVESGGGLVQAGGSLRLRCAASGFIFGYYAMGWYRQAPGKERELVAAITTSGGSTYYADSVKARFTISRDNAKNTVYLQMNSLKPEDTAVYYCNKPGNYVWRRSWDFDYWGQGTQVTVSS",
    "polyreactivity (PSR sort gate)": "high polyreactivity"
  },
  {
    "querySequence": "QVQLQESGGGLVQAGGSLRLGCAASGNISDAGYMGWYRQAPGKEREFVAAIAAGSTTNYADSVKGRFTISRDNAKNTVYLQMNSLKPEDTAVFYCAVASYARVQFEYWGQGTQVTVNS",
    "polyreactivity (PSR sort gate)": "low polyreactivity"
  },
  {
    "querySequence": "QVQLVESGGGLVQAGGSLRLSCAASGIIFDRYAMGWYRQAPGKEREFVAAISRRGGSTYYADSVKGRFTISRDNAKNTVYLQMNSLKPEDTAVYYCAKEIRYSSSVSESDYWGQGTQVTVSS",
    "polyreactivity (PSR sort gate)": "high polyreactivity"
  }
]

###

assay: yeast display, Sf9 membrane polyspecificity reagent, FACS + sequencing; frameworks hold sequencing errors

[
  {
    "querySequence": "QVQLVESGGRLVQAGGSLRLSCAASGRTFGWYAMGWYRQAPGKERELVAAINRRVGRTYYADSVKGRFTISRDNAKNTVYLQMNSLIPEDTAVYYCAVKQGFYSRALKLYYWGQGTQVTVSS",
    "polyreactivity (PSR sort gate)": "high polyreactivity"
  },
  {
    "querySequence": "QVQLVESGGGLVQAGGSLRLSCAASGSTFGPYVMGWYRQAPGKERELVAAISRIGGRTYYADSVKGRFTISRDNAKNTVYLQMNSLKPEDTAVYYCAAKVGLYGDDYWGQGTQVTVSS",
    "polyreactivity (PSR sort gate)": "high polyreactivity"
  },
  {
    "querySequence": "QVEVVESGGGLVQAGGSLRLSCAASGRNFRFNAMGWYRQAPGKERELVAAISFRGGSTYYADTVKGRFTISRDNAKNTVYGQINSLKPEDPAVYYCAARARTGTYRDMYYWGQGTQVTVSS",
    "polyreactivity (PSR sort gate)": "high polyreactivity"
  },
  {
    "querySequence": "QVQLVESGGGLVQAGGSLRLSCAASGFTFLYYDMGWYRQAPGKERELVAAITSSGTSTYYADSVKGRFTISRDNAKNTVYLQMNSLKPEDTAVYYCAVLYTYAGRHRYGYWGQGTQVTVSS",
    "polyreactivity (PSR sort gate)": "high polyreactivity"
  },
  {
    "querySequence": "QVQLVESGGALVQAGGSLRLSCAASRSIFWINAMGGYRQAPGTERELVADNDVSGGSTYYADTVKGRFTISRDNAKNTVYLKMNSLKPEDTEVYYCAADDYWAYLYYKTSEYDYWGQGTQVTVSS",
    "polyreactivity (PSR sort gate)": "low polyreactivity"
  },
  {
    "querySequence": "QVQLVESGGGLVQAGGSLRLSCAASGLTFGVYAMGWSRQAPGKERELVAAIDLSDDITYYADSVKGRFTISRDNAKNTVYLQMNSLKPEDTAVYYSAAEYYLYSTYTVSYWKYDYWGQGTQVTVSS",
    "polyreactivity (PSR sort gate)": "high polyreactivity"
  },
  {
    "querySequence": "QVHLVESGGGLVQAGGSLRLSCAASGIIFYANVMGWYRQAPGKERELVAGISRNGGRTYYADSVKGRFTFSRDNAKNTVYLQMICLKPEDTAVYYCAARGSYTSIFDYWGQGTQVTVSS",
    "polyreactivity (PSR sort gate)": "high polyreactivity"
  },
  {
    "querySequence": "QVQLVESGGGLVQAGGSLRLSCAASGITFPYYAMGWYREAPGKERELVAAITQSGGSTYYADSVKGRFTISRDNAKNTVYLQMNSLKPEDTAVYYCAADSSRSVNYYRYDYWGQGTQVTLSS",
    "polyreactivity (PSR sort gate)": "low polyreactivity"
  },
  {
    "querySequence": "QVHLVESGGGLVQAGGSLRLSCAATGLTFHKYAMGWYRQSPGKERELVAAISSSGGSTYYADSVKGRFTISRDNAKNTVYLQMNSLKPEDTAVYYCATRLPYYTHAGYNYWGQGTQVTVSS",
    "polyreactivity (PSR sort gate)": "high polyreactivity"
  },
  {
    "querySequence": "QVQIVESGGGLVQAGGSLRLSCAASGSIFGYAMGWYRPAPGKERELVAAISFSGVSTYYADSVKGRFTISRDNAKNTVYLQMNSLKPEDTAVYYCNAYSDGDEDYWGQGTQVTVSS",
    "polyreactivity (PSR sort gate)": "low polyreactivity"
  },
  {
    "querySequence": "QVQLVESGGGLVQAGGSLRLSCGASGSTFAINAMGWYRQAPGKERELVAAINWSGTTTYYADSVKGRFTISRDNAKNTVYLQMNSLKPEDTAVYYCNARYYVLRGYDYWGQGTQVTVSS",
    "polyreactivity (PSR sort gate)": "low polyreactivity"
  }
]

Data provenance: the nanobody polyreactivity screen of Harvey et al. (2022)
